The measurements presented in this section are drawn from ChEMBL document CHEMBL5543096.

# measurementDescription: AUC (0 to infinity) in Sprague-Dawley rat at 0.3 mg/kg,ip measured at 0.05 to 24 hrs of post administration by LC-MS/MS analysis
# Type: ADME, organism-based
# testParameters: in vivo, time 0.05-24 hrs
readoutName: AUC(0-inf) (ng·h/mL)
Note: unit ng·h/mL is implicit; provide only the numeric part.

Recorded AUC(0-inf) for CN1[C@@H]2C[C@@H](OC(=O)[C@@](F)(CO)c3ccccc3)C[C@H]1[C@@H]1O[C@@H]12 , please?
25.9

* * *

# measurementDescription: MRT (0 to infinity) in Sprague-Dawley rat at 0.3 mg/kg,iv measured at 0.05 to 24 hrs of post administration by LC-MS/MS analysis
# Assay type: ADME, organism-based
# testParameters: in vivo, time 0.05-24 hrs
readoutName: MRT inf (min)
Give just the numeric value; min need not be written.

If you can, please state the reported MRT inf value of CN1[C@@H]2C[C@@H](OC(=O)[C@@](F)(CO)c3ccccc3)C[C@H]1[C@@H]1O[C@@H]12 .
16.6
